biological target: T1, recombinant human LAG3 expressed with a C-terminal myc-myc-hexahistidine tag (human, UniProt P18627 29-450); assay: SPR, mAb captured, 37 C
T1 construct: also called hLAG3-mmh; hLAG3.mmh
T1 sequence (P18627 other isoform, or with tags, fused parts or gaps limits assumed): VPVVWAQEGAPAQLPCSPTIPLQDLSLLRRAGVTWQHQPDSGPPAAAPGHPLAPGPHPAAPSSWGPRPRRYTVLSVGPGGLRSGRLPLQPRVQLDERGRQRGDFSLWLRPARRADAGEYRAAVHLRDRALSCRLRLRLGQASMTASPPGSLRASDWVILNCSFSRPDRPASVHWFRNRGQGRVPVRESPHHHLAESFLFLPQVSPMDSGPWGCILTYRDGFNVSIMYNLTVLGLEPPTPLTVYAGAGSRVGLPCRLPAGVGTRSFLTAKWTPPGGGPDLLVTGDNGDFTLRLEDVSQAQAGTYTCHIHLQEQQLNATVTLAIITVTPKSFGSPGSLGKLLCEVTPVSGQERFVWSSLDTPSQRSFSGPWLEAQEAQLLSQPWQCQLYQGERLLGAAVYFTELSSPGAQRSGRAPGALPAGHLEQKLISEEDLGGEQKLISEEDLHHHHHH
Measure Name: Kd (pM)
Give a bare numeral; the unit pM is implied.

Field Kd (entry H4sH14813N (antibody, human IgG4 S228P, kappa, V domains shown, H4sH = modified human IgG4 Fc) VH: QVQLQQWGAGLLKPSETLSLTCAVYGGSFSGYYWNWIRQPPGKGLEWVGEISHRGSTNYNPSLKSRVTISLDTSKNQFSLKLTSVTAADTAVYYCSRDEELEFRFFDYWGQGTLVTVSS VL: EIVLTQSPATLSLSPGERATLSCRASQSVSSYLAWYQQKPGQAPRLLVYGASNRATGIPARFSGSGSGTDFTLTISSLEPEDFAFYYCQQRSNWPLTFGGGTKVEIKR ) reads 266

Field Kd (entry H4sH15479P (antibody, V domains shown) VH: QVQLQQWGAGLLNPSETLSLTCAVYGGAFSDYYWNWIRQPPGKGLEWIGEINHRGSTNYNPSLKSRVTISVDTSKNQFSLRMSSVTAADAAVYYCARGEDYDIWNGYYQEKWGQGTLVTVSS VL: EIVLTQSPATLSLSPGERATLSCRASQSISTYLAWYQQKPGQAPRLLIYDASKRATGIPARFSGSGSGTDFTLTISSLEPEDFVVYYCHQRSNWPLTFGGGTKVEIK ) reads 34.1

Field Kd (entry H4H17823P (antibody, human IgG4, V domains shown, H4H = human IgG4 Fc with S108P hinge mutation) VH: EVQLLESGGGLVQPGGSLRLSCAASGFTFRSYAMSWVRQAPGKGLEWVSVISGGGGRTYYTDSVKGRFTISRDNSKSMLYLQMNSLRAEDTAIYYCAKERVTGIDHYYYGVDVWGQGTTVTVSS VL: DIQMTQSPSSLSASVGDRVTITCRASQSISSYLNWYQQKPGKAPKLLIYATSSLQSGVPSRFSGSASGTDFTLAISSLQPEDFATYYCQQSYTTPLTFGGGTKVEIK ) reads 524

Field Kd (entry H4H17819P (antibody, human IgG4, V domains shown, H4H = human IgG4 Fc with S108P hinge mutation) VH: EVQLVESGGGLVQPGGSLRLSCVASGFTFSLYAMTWVRQVPGKGLEWVSTISGSGGGTYYTDSVKGRFTISRDNSKNTLYLQMNSLRADDTAVFYCTKESTTGTYSYFYGMDVWGQGTTVTVSS VL: DIQMTQSPSSLSASVGDRVTITCRASQTISSYLNWYQQKPGKAPKLLIYAASSLQSGVPSRFSGSGSGTDFTLTLSGLQPEDFATYYCQQSYSTPLTFGGGTKVEIK ) reads 552
